GI50: recorded values
- Tested on: DLD-1
- Protocol text: NCI tumour cell line growth inhibition, 48 h
Where a name gives a salt, the structure may show the parent alone. The source made the active and inactive calls. No stated cut-off is given here; in the data, active = GI50 up to about 1.1 µM and inactive = higher.
Reported property: GI50

Compound	Assay system	Reported property	Recorded result
CC(=O)OCCOCBr	DLD-1	GI50	> 100 µM (inactive)
O=C1c2ccccc2C(=O)c2c(O)c(NCCCNCCO)cc(O)c21	DLD-1	GI50	6.49 µM (inactive)
CC(C)(O)C(O)COc1c2c(cc3oc(=O)ccc13)OCO2 (configuration not stated)	DLD-1	GI50	> 100 µM (inactive)
CC(=O)Nc1ccc(-c2nnc(SCC(=O)Nc3cccc(Cl)c3)o2)cc1	DLD-1	GI50	14.3 µM (inactive)
CCOC1=C2N=C(C(CC)c3ccc(F)cc3)N=C2C(=O)c2ccccc21 (configuration not stated)	DLD-1	GI50	7.55 µM (inactive)
COC(=O)CC(=O)OC	DLD-1	GI50	> 100 µM (inactive)
Cc1ccc(C(=O)NCCN(C)C)c2nc3ccccc3cc12	DLD-1	GI50	1.32 µM (inactive)
O=C(c1ccccc1)C1S(=O)(=O)OCCOS1(=O)=O	DLD-1	GI50	> 100 µM (inactive)
C[C@@H](NC1CCCC[C@@H]1O)c1ccccc1 (some centres not stated)	DLD-1	GI50	> 100 µM (inactive)
COP(=O)(OC)C(NC(=O)C(F)(F)F)(c1ccccc1)C(F)(F)F (configuration not stated)	DLD-1	GI50	> 100 µM (inactive)
CCOC(=O)C(C(CC(=O)OC)NC(=O)OCc1ccccc1)C1(C)OCCO1 (configuration not stated)	DLD-1	GI50	> 100 µM (inactive)
CC1(C)C(=O)/C=C\C(=O)C(C)(C)C(=O)/C=C\C(=O)C(C)(C)C2=CC=C(O2)C(C)(C)C(=O)/C=C\C1=O	DLD-1	GI50	1.72 µM (inactive)
O=C1C2c3[nH]c4ccccc4c3C3CCCCCCC3C2C(=O)N1c1ccccc1 (configuration not stated)	DLD-1	GI50	> 10 µM (inactive)
CCCCCOCC(O)CO (configuration not stated)	DLD-1	GI50	> 100 µM (inactive)
CCC1(O)C(=O)OCc2c1cc1n(c2=O)Cc2c-1nc1ccccc1c2OC (configuration not stated)	DLD-1	GI50	0.488 µM (active)
COC(=O)C1=C(C[S+]([O-])c2ccc([N+](=O)[O-])cc2[N+](=O)[O-])C2C=CC1C2 (configuration not stated)	DLD-1	GI50	19.1 µM (inactive)
COC(=O)c1nc(NC#N)nc(O)c1C	DLD-1	GI50	> 100 µM (inactive)
Cc1ccc(C(=O)N2CCN(C(=O)c3ccc(C)cc3)c3ccccc32)cc1	DLD-1	GI50	4.23 µM (inactive)
CC(=O)OC1CC[C@@]2(C)C(CC[C@]3(C)C2CC=C2[C@@H]4C(C)[C@H](C)CCC4(C)CCC23C)[C@@]1(C)C(=O)O (some centres not stated)	DLD-1	GI50	18.7 µM (inactive)
CCOC(=O)c1c(CN2CCNCC2)nc2ccc(Cl)cc2c1-c1ccccc1	DLD-1	GI50	2.98 µM (inactive)
Nc1n/c(=N\c2ccccc2)ss1	DLD-1	GI50	> 100 µM (inactive)
N[C@@H](Cc1ccc(N(CCCl)CCCl)cc1)C(=O)O [MELPHALAN HYDROCHLORIDE]	DLD-1	GI50	47 µM (inactive)
O=C1C2C=CC(n3[nH]c(=O)n(Cc4ccccc4)c3=O)CC2C(=O)N1c1ccc(Br)cc1 (configuration not stated)	DLD-1	GI50	> 100 µM (inactive)
CCCCN(CCCC)C(=Nc1ccccc1)N(CCCC)CCCC	DLD-1	GI50	6.38 µM (inactive)
CC1(C)C(=NNC(=O)C[N+](C)(C)C)C(C)(C)C1=NNC(=O)C[N+](C)(C)C	DLD-1	GI50	> 100 µM (inactive)
O=C1C(CN2CCOCC2)CCCC1CN1CCOCC1 (configuration not stated)	DLD-1	GI50	0.67 µM (active)
O=C(O)CNS(=O)(=O)c1ccc(NC(=O)CI)cc1	DLD-1	GI50	26.9 µM (inactive)
